# protocol_summary: inhibition of 3D7 malaria parasite growth – strain 3D7 (AID 2306);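 further: 0% = DMSO wells and 100% = chloroquine plus artemisinin control wells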
# experimental_parameters: P. falciparum 3D7 erythrocytic growth, LDH absorbance, 72 h; at 2 µM; active compounds read high
Reported growth inhibition by item:
attribute_measured: growth inhibition (%)

compound | value_units | val
CS(=O)(=O)Nc1ccc2c(C3CCN(CCC4CCN(C(=O)/C=C/c5ccc(Cl)c(Cl)c5)CC4)CC3)c[nH]c2c1 | % | 99
CC(C)(C)c1ccc(S(=O)(=O)Nc2ccccc2Cn2nc(N3CCNCC3)ccc2=O)cc1 | % | 98
O=C(Nc1ccc(-c2ccc(-c3nc4ccccc4[nH]3)s2)cc1)Nc1ccc(Cl)c(Cl)c1 | % | 102
CCOC(=O)c1ccc(NC(=O)Nc2cccc(-c3cccc(-c4nc5ccccc5[nH]4)c3)c2)cc1 | % | 100
CC(C)COc1ccc(Cl)cc1Cc1ccc(-c2nc3c(F)cccc3[nH]2)o1 | % | 98
O=C(/C=C/c1ccc(Cl)c(Cl)c1)NCCCCCN1CCC(NC(=O)Nc2cccc(Cl)c2)CC1 | % | 102
N#Cc1ccc2c(c1)CN(CCC1CCC(NC(=O)c3cc4ccccc4cc3N)CC1)CC2 (stereo unspecified) | % | 80
Cc1cccc2[nH]c(-c3ccc(-c4ccc(CNCc5ccccc5)cc4)s3)nc12 | % | 103
CC(C)C[C@@H](C(=O)Nc1ccc(Cc2ccc(NC(=O)[C@H](CC(C)C)N(C)C(=O)OC(C)(C)C)cc2)cc1)N(C)C(=O)OC(C)(C)C | % | 92
Cc1noc(C)c1-c1ccc2c(Nc3nccc4ccccc34)c(C(N)=O)cnc2c1 | % | 100
CCOC(=O)c1ccc(NC(=O)N[C@H]2CCN(CCCCCNC(=O)/C=C/c3ccc(Cl)c(Cl)c3)C2)cc1 | % | 98
Fc1ccc2nc(-c3ccc(-c4ccc(CNCCc5ccncc5)cc4)s3)[nH]c2c1 | % | 99
Fc1ccc(C=NNc2nc3ccccc3[nH]2)cc1 | % | 98
Cc1cccc(C(=O)N2CCN(Cc3cccc(NC(=O)c4ccco4)c3)CC2)c1 | % | 94
O=c1cc(NCCCNCc2cc3ccc(Br)cc3s2)[nH]c2ccccc12 | % | 92
COc1ccccc1CCNc1nccc(N[C@@H](Cc2ccccc2)C(=O)NCc2cccs2)n1 | % | 90
COc1ccc(-c2nonc2NC(=O)c2ccc(C(C)(C)C)cc2)cc1OC | % | 99
COc1cc(F)c2ncc(Cl)c(C(O)CN3CCC(NC(=O)c4ccc5c(n4)NC(=O)CO5)CC3)c2c1 (stereo unspecified) | % | 102
NC(=O)c1ccc(NCC(=O)Nc2cccc(-c3cccc(-c4nc5ccccc5[nH]4)c3)c2)cc1 | % | 99
O=C(Nc1cccc(OC2CCN(Cc3ccsc3)CC2)c1)c1ccc(C(F)(F)F)cc1 | % | 98
c1cc(-c2ccc(CNC3CCOCC3)cc2)cc(-c2nc3ccccc3[nH]2)c1 | % | 100
Cc1cc(C2CCN(CCCCNC(=O)c3ccc(NC(=O)c4ccc(Cl)cc4)cc3)CC2)c(C)cc1OCc1nccn1C | % | 100
CC[C@H](C)CNC(=O)c1cccc(-c2ccc(CN3CCC(N4CCCC4)CC3)cc2)n1 | % | 101
CCC[C@@H]([C@@H](CC1CCCCC1)C(=O)N[C@H](C(=O)Nc1nccs1)C(C)(C)SCCNC(=O)OCC)N(O)C=O | % | 99
CCc1c[nH]c2c(N3CCCC3=O)cc(C(=O)N[C@@H](Cc3ccccc3)[C@H](O)CNC(C)(C)CCCC(C)C)cc12 | % | 96
COc1ccc(Nc2ncc3c(-c4cccc(NC(=O)Cc5cccc(F)c5)c4)c[nH]c3n2)cc1OC | % | 101
